# Test system: MDA-MB-468
# PROCEDURE_TEXT: NCI 60 antitumor screening (single dose / five doses)
# Assay type: cell-based
# CONDITION_NOTES: Homo sapiens; MDA-MB-468 (breast cancer), single dose 10 μM; read-out: Growth inhibition percentage (GI %)
Kindly return Fulfilled if reported inhibition at 10 µM is no lower than 10%; return Not fulfilled if it is lower.

// below: answered molecules
MOLECULE: CN(C)c1ccc(/C=N/Nc2nc(N/N=C/c3ccc(N(C)C)cc3)nc(N3CCCCC3)n2)cc1 [compound 7g]
SYSTEM_UNDER_TEST: MDA-MB-468
LABEL_VALUE: Fulfilled

MOLECULE: Clc1cccc(/C=N/Nc2nc(N/N=C/c3cccc(Cl)c3Cl)nc(N3CCOCC3)n2)c1Cl [compound 6h]
SYSTEM_UNDER_TEST: MDA-MB-468
LABEL_VALUE: Fulfilled

MOLECULE: O=C(NNc1nc(NNC(=O)c2ccccc2)nc(N2CCOCC2)n1)c1ccccc1 [compound 8d]
SYSTEM_UNDER_TEST: MDA-MB-468
LABEL_VALUE: Not fulfilled

Task item: # check: inhibition at 10 µM of Fc1cccc(/C=N/Nc2nc(N/N=C/c3cccc(F)c3)nc(N3CCCCC3)n2)c1 [compound 7e] is greater than or equal to 10%
Reply: Not fulfilled

Task item: In plain terms: is recorded inhibition at 10 µM at least 10% for Oc1ccccc1/C=N/Nc1nc(N/N=C/c2ccccc2O)nc(N2CCOCC2)n1 [compound 6a] ?
Reply: Fulfilled

Task item: Item Oc1ccccc1/C=N/Nc1nc(N/N=C/c2ccccc2O)nc(N2CCCCC2)n1 [compound 7a] with inhibition at 10 µM of 10% or above?
Reply: Fulfilled

Task item: Test whether the molecule Oc1ccc(/C=N/Nc2nc(N/N=C/c3ccc(O)c(O)c3)nc(N3CCOCC3)n2)cc1O [compound 6j] records inhibition at 10 µM of 10% or higher.
Reply: Not fulfilled

###

# Tested on: CAKI-1
# PROCEDURE_TEXT: NCI 60 antitumor screening (single dose)
# Type: cell-based
# CONDITION_NOTES: Homo sapiens; CAKI-1 (renal cancer), single dose 10 μM; read-out: Growth inhibition percentage (GI %)
RESULT_TYPE: inhibition at 10 µM (%)
Answers are plain numbers, in %.

SMILES_REPRESENTATION: C(=N\Nc1nc(N/N=C/c2ccc3c(c2)OCO3)nc(N2CCCCC2)n1)/c1ccc2c(c1)OCO2
SYSTEM_UNDER_TEST: CAKI-1
inhibition at 10 µM (%): 1.07
//
SMILES_REPRESENTATION: CN(C)c1ccc(/C=N/Nc2nc(N/N=C/c3ccc(N(C)C)cc3)nc(N3CCCCC3)n2)cc1
SYSTEM_UNDER_TEST: CAKI-1
inhibition at 10 µM (%): 10.1
//
SMILES_REPRESENTATION: Clc1cccc(/C=N/Nc2nc(N/N=C/c3cccc(Cl)c3)nc(N3CCOCC3)n2)c1
SYSTEM_UNDER_TEST: CAKI-1
inhibition at 10 µM (%): 62.4

Turning to the following molecule.
Task item: Please look up its inhibition at 10 µM: `Brc1cccc(/C=N/Nc2nc(N/N=C/c3cccc(Br)c3)nc(N3CCCCC3)n2)c1`
Reply: 0.79

###

# Tested on: DU-145
# PROCEDURE_TEXT: NCI 60 antitumor screening (single dose / five doses)
# Assay type: cell-based
# CONDITION_NOTES: Homo sapiens, DU-145, read-out: Growth inhibition percentage (GI %)
Class class 1: inhibition at 10 µM at least 20%. Class class 0: inhibition at 10 µM below 20%.

Examples with answers:
COMPOUND: O=[N+]([O-])c1cc(/C=N/Nc2nc(N/N=C/c3ccc(Cl)c([N+](=O)[O-])c3)nc(N3CCOCC3)n2)ccc1Cl [compound 6i]
SYSTEM_UNDER_TEST: DU-145
LABEL_VALUE: class 0
//
COMPOUND: O=[N+]([O-])c1cc(/C=N/Nc2nc(N/N=C/c3ccc(Cl)c([N+](=O)[O-])c3)nc(N3CCCCC3)n2)ccc1Cl [compound 7i]
SYSTEM_UNDER_TEST: DU-145
LABEL_VALUE: class 1

Task item: Test whether the compound O=[N+]([O-])c1cccc(/C=N/Nc2nc(N/N=C/c3cccc([N+](=O)[O-])c3)nc(N3CCCCC3)n2)c1 [compound 7f] records inhibition at 10 µM of 20% or higher.
Reply: class 1

Task item: Kindly determine if inhibition at 10 µM recorded for O=[N+]([O-])c1cccc(/C=N/Nc2nc(N/N=C/c3cccc([N+](=O)[O-])c3)nc(N3CCOCC3)n2)c1 [compound 6f] is above or exactly 20%.
Reply: class 1

Task item: # check: inhibition at 10 µM of C/C(=N\Nc1nc(N/N=C(\C)c2ccc([N+](=O)[O-])cc2)nc(N2CCOCC2)n1)c1ccc([N+](=O)[O-])cc1 [compound 8a] is greater than or equal to 20%
Reply: class 0

###

# Tested on: MDA-MB-468
# PROCEDURE_TEXT: NCI 60 antitumor screening (single dose / five doses)
# Format: cell-based
# CONDITION_NOTES: Homo sapiens; MDA-MB-468 (breast cancer), single dose 10 μM; read-out: Growth inhibition percentage (GI %)
RESULT_TYPE: inhibition at 10 µM
Answer with the value and then the unit.

Past entries and their recorded results:
COMPOUND: Brc1cccc(/C=N/Nc2nc(N/N=C/c3cccc(Br)c3)nc(N3CCCCC3)n2)c1
inhibition at 10 µM: 9.99%
//
COMPOUND: Fc1cccc(/C=N/Nc2nc(N/N=C/c3cccc(F)c3)nc(N3CCOCC3)n2)c1
inhibition at 10 µM: 11.5%

Hey, quick one: what's inhibition at 10 µM for each of these?
1. Fc1cccc(Cl)c1/C=N/Nc1nc(N/N=C/c2c(F)cccc2Cl)nc(N2CCCCC2)n1
2. COC(=O)C(Cc1ccccc1)Nc1nc(NC(Cc2ccccc2)C(=O)OC)nc(N2CCOCC2)n1 (stereo not shown)
3. C(=N\Nc1nc(N/N=C/c2ccc3c(c2)OCO3)nc(N2CCCCC2)n1)/c1ccc2c(c1)OCO2
4. Clc1cccc(/C=N/Nc2nc(N/N=C/c3cccc(Cl)c3)nc(N3CCCCC3)n2)c1
5. Brc1ccccc1/C=N/Nc1nc(N/N=C/c2ccccc2Br)nc(N2CCOCC2)n1

Reply:
1. 114%
2. -7.75%
3. 18.4%
4. 23.7%
5. 9.74%

###

# System: CAKI-1
# PROCEDURE_TEXT: NCI 60 antitumor screening (single dose)
# Type: cell-based
# CONDITION_NOTES: Homo sapiens; CAKI-1 (renal cancer), single dose 10 μM; read-out: Growth inhibition percentage (GI %)
Exercise: for every item that follows, state its recorded inhibition at 10 µM.
Give bare numbers, in %.

Okay, here is my list. What is inhibition at 10 µM for each of these?
1. Oc1ccc(/C=N/Nc2nc(N/N=C/c3ccc(O)c(O)c3)nc(N3CCCCC3)n2)cc1O
2. O=C(NNc1nc(NNC(=O)c2ccccc2)nc(N2CCOCC2)n1)c1ccccc1

Reply:
13.4
3.15

Task item: Request body: readout inhibition at 10 µM, system CAKI-1, query `Oc1ccccc1/C=N/Nc1nc(N/N=C/c2ccccc2O)nc(N2CCOCC2)n1` . Return the value.
Reply: 95.4

###

# Test system: NCI-H322M
# PROCEDURE_TEXT: NCI 60 antitumor screening (single dose)
# Type: cell-based
# CONDITION_NOTES: Homo sapiens; NCI-H322M (non-small cell lung cancer), single dose 10 μM; read-out: Growth inhibition percentage (GI %)
What inhibition at 10 µM was measured for each of the following?
Numbers only, in %.

Examples with their reported inhibition at 10 µM follow.
SMILES_REPRESENTATION: Clc1cccc(/C=N/Nc2nc(N/N=C/c3cccc(Cl)c3Cl)nc(N3CCOCC3)n2)c1Cl
inhibition at 10 µM (%): 11.9

SMILES_REPRESENTATION: Brc1ccccc1/C=N/Nc1nc(N/N=C/c2ccccc2Br)nc(N2CCOCC2)n1
inhibition at 10 µM (%): 3.22

SMILES_REPRESENTATION: Fc1cccc(Cl)c1/C=N/Nc1nc(N/N=C/c2c(F)cccc2Cl)nc(N2CCOCC2)n1
inhibition at 10 µM (%): 16.2

Below is a list of molecules. For each, state its recorded inhibition at 10 µM.
1. C(=N\Nc1nc(N/N=C/c2ccc3c(c2)OCO3)nc(N2CCCCC2)n1)/c1ccc2c(c1)OCO2
2. Brc1ccccc1/C=N/Nc1nc(N/N=C/c2ccccc2Br)nc(N2CCCCC2)n1
3. CN(C)c1ccc(/C=N/Nc2nc(N/N=C/c3ccc(N(C)C)cc3)nc(N3CCCCC3)n2)cc1
4. Oc1ccc(/C=N/Nc2nc(N/N=C/c3ccc(O)c(O)c3)nc(N3CCCCC3)n2)cc1O
5. Fc1cccc(/C=N/Nc2nc(N/N=C/c3cccc(F)c3)nc(N3CCOCC3)n2)c1

Reply:
1.53
3.65
-0.12
-2.3
3.82

Numbers sourced from paper PMC9848300.
